The origin of these recorded values is patent US20260092093A1.

study target: T1, hIL-18BP-hFc (human, UniProt O95998 31-194, limits assumed)
T1 sequence (looked up): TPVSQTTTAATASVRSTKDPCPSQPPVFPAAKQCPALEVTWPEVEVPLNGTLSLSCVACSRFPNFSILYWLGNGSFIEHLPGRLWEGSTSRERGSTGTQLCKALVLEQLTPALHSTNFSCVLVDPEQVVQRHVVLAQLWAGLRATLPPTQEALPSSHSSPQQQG
assay method text: cell-based or functional assay
Listed here: items and their measured EC50 Fold Change (+BP/-BP), PBMC assay (hIFNγ release).
Field: numeric (fold). Do not append units.

[
  {
    "binder": "IL-18 variant polypeptide M17 (ligand) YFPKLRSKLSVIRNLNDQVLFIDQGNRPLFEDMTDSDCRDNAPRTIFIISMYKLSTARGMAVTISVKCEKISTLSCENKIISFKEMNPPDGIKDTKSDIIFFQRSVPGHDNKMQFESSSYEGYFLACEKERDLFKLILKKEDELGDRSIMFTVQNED",
    "result unit": "fold",
    "measured result": 1
  }
]

Continue with the next binder.
Field request: EC50 Fold Change (+BP/-BP), PBMC assay (hIFNγ release) | item: IL-18 variant polypeptide M33 (ligand) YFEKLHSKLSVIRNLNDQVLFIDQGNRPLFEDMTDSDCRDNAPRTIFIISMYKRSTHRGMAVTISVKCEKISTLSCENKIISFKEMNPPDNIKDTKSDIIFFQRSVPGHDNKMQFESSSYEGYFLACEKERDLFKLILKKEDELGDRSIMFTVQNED 0.69
